B1: VH:VL chains; a variant is named by its letters at X, in order (parent)
chain 1: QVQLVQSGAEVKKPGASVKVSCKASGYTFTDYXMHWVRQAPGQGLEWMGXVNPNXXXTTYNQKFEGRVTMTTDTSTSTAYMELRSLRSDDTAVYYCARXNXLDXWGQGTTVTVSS
chain 2: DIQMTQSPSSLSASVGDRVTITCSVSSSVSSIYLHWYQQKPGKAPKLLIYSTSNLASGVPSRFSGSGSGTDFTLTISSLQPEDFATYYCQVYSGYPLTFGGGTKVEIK

variants of: B1; experiment: yeast display scFab, FACS + sequencing
Parameter: non-specific binding call

The examples below pair each entry with its known result.
Mutation: FKARGSGV
non-specific binding call: binds

Mutation: SAGEGDVF
non-specific binding call: no binding

Mutation: ARRGAAGV
non-specific binding call: binds

Mutation: VGGTSSSV
non-specific binding call: no binding

Please look up its non-specific binding call: YRTRGYAV
binds
